Target: TEAD1 in NCI-H226 cells (Homo sapiens (Human), UniProt P28347)
Sequence (P28347 whole entry): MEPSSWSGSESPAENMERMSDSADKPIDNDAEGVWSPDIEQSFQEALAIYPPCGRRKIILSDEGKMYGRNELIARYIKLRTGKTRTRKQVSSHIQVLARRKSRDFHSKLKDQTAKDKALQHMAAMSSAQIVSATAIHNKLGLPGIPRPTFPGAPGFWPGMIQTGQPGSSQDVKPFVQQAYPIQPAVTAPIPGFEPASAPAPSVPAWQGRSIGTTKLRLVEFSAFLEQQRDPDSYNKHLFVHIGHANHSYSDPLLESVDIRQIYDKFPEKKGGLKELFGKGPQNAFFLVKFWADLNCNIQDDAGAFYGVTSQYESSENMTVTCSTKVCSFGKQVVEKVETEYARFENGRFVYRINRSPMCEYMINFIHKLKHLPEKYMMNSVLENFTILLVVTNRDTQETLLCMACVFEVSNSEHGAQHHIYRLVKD
Experiment: TEAD degradation in NCI-H226 cell line (immunofluorescence)
Format: cell-based
Settings: 24 hours, ranges, read-out: DC50 NCI-H226
Protocol: Degradation of TEAD isoform TEAD1 by exemplary compounds which has been determined at different time points in two different cell lines, SK-HEP1 and NCI-H226: For the assay, SK-HEP1 (ATCC HTB-52) and NCI-H226 (ATCC CRL-5826) cells were treated in duplicates with the test compounds in a 10-point dose, 1:3 dilution steps, with the top concentration starting at 30 uM (final concentration in assay). […] DC50 was calculated using curve fitting software Genedata Screener. […]
DC50 listing for selected compounds.
recorded.endpoint: DC50

compound	result
Cn1cc2c3cc(C(=O)NCCOCCOCCOCCOCCNc4cccc5c4CN(C4CCC(=O)NC4=O)C5=O)ccc3n(-c3ccc(C(F)(F)F)cc3)c2n1 (centres unmarked)	0.1 to 1 µM
Cc1ncsc1-c1ccc(CNC(=O)[C@@H]2C[C@@H](O)CN2C(=O)[C@@H](NC(=O)COCCOCCOCCOCCOCCOCCNC(=O)c2ccc3c(c2)c2cn(C)nc2n3-c2ccc(C(F)(F)F)cc2)C(C)(C)C)cc1	1 to 3 µM
Cn1cc2c3cc(C(=O)NCCOCCOCCOCCOCCNc4cccc5c4C(=O)N(C4CCC(=O)NC4=O)C5=O)ccc3n(CC3CCC(C(F)(F)F)CC3)c2n1 (centres unmarked)	0.1 to 1 µM
Cc1ncsc1-c1ccc([C@H](C)NC(=O)[C@@H]2C[C@@H](O)CN2C(=O)[C@@H](NC(=O)CCCCCc2cnnn2CCCCCCCNC(=O)c2ccc3c(c2)c2cn(C)nc2n3-c2ccc(C(F)(F)F)cc2)C(C)(C)C)cc1	0.1 to 1 µM
Cn1nc2c3cc(C(=O)NCCOCCOCCOCCOCCNc4cccc5c4C(=O)N(C4CCC(=O)NC4=O)C5=O)ccc3n(-c3ccc(C(F)(F)F)cc3)c2n1 (centres unmarked)	< 0.1 µM

====

biological target: TEAD1 in SK-HEP1 cells (Homo sapiens (Human), UniProt P28347); assay: TEAD degradation in SK-HEP1 cell line (immunofluorescence); type: cell-based; conditions: 24 hours, ranges, read-out: DC50 SK-HEP1
Sequence (P28347 whole entry): as the sequence (P28347 whole entry) above
Documented DC50 across a set of compounds
recorded.endpoint: DC50

compound	result
Cc1ncsc1-c1ccc(CNC(=O)[C@@H]2C[C@@H](O)CN2C(=O)[C@@H](NC(=O)CCCCCCOCCNC(=O)c2ccc3c(c2)c2cn(C)nc2n3-c2ccc(C(F)(F)F)cc2)C(C)(C)C)cc1 [Compound 77]	0.1 to 1 µM
Cn1cc2c3cc(C(=O)NCCOCCOCCOCCOCCNc4ccc5c(c4)C(=O)N(C4CCC(=O)NC4=O)C5=O)ccc3n(-c3ccc(C(F)(F)F)cc3)c2n1 (stereo not shown) [Compound 42]	< 0.1 µM
Cn1cc2c3cc(C(=O)NCCOCCOCCOCCOCCNC(=O)COc4ccc5c(c4)CCCN5C(=O)CCl)ccc3n(-c3ccc(C(F)(F)F)cc3)c2n1 [Compound 31]	3 to 9 µM
Cc1ncsc1-c1ccc(CNC(=O)[C@@H]2C[C@@H](O)CN2C(=O)[C@@H](NC(=O)COCCOCCOCCOCCOCCOCCNC(=O)c2ccc3c(c2)c2cn(C)nc2n3-c2ccc(C(F)(F)F)cc2)C(C)(C)C)cc1 [Compound 32]	1 to 3 µM
CCNC(=O)[C@H](Cc1ccccc1)NC(=O)[C@@H]1CCCN1C(=O)[C@@H](NC(=O)[C@H](C)NCCCCCCNC(=O)c1ccc2c(c1)c1cn(C)nc1n2-c1ccc(C(F)(F)F)cc1)C1CCCCC1 [Compound 73]	3 to 9 µM
Cn1cc2c3cc(C(=O)NCCOCCOCCOCCOCCOCCOCCNc4cccc5c4C(=O)N(C4CCC(=O)NC4=O)C5=O)ccc3n(-c3ccc(C(F)(F)F)cc3)c2n1 (stereo not shown) [Compound 87]	< 0.1 µM
Cn1cc2c3cc(C(=O)NCCOCCOCCOCCOCCNc4cccc5c4C(=O)N(C4CCC(=O)NC4=O)C5=O)ccc3n(-c3ccc(C(F)(F)F)cc3)c2n1 (stereo not shown) [Compound 28]	< 0.1 µM
Cc1ncsc1-c1ccc(CNC(=O)[C@@H]2C[C@@H](O)CN2C(=O)[C@@H](NC(=O)CCCCCC(=O)NCCOCCOCCNC(=O)c2ccc3c(c2)c2cn(C)nc2n3-c2ccc(C(F)(F)F)cc2)C(C)(C)C)cc1 [Compound 4]	0.1 to 1 µM
Cc1ncsc1-c1ccc(CNC(=O)[C@@H]2C[C@@H](O)CN2C(=O)[C@@H](NC(=O)CCCCCc2cn(CCCCCCNC(=O)c3ccc4c(c3)c3cn(C)nc3n4-c3ccc(C(F)(F)F)cc3)nn2)C(C)(C)C)cc1 [Compound 35]	< 0.1 µM
Cc1ncsc1-c1ccc(CNC(=O)C2CC(O)CN2C(=O)C(NC(=O)COCCOCCOCCOCCNC(=O)c2ccc3c(c2)c2cn(C)nc2n3-c2ccc(C(F)(F)F)cc2)C(C)(C)C)cc1 (stereo in doubt) [Compound 12]	0.1 to 1 µM

====

Molecular target: TEAD1 in SK-HEP1 cells (Homo sapiens (Human), UniProt P28347)
Assay: TEAD degradation in SK-HEP1 cell line (immunofluorescence)
Format: cell-based
Settings: 24 hours, ranges, read-out: DC50 SK-HEP1
Protocol: Degradation of TEAD isoform TEAD1 by exemplary compounds which has been determined at different time points in two different cell lines, SK-HEP1 and NCI-H226: For the assay, SK-HEP1 (ATCC HTB-52) and NCI-H226 (ATCC CRL-5826) cells were treated in duplicates with the test compounds in a 10-point dose, 1:3 dilution steps, with the top concentration starting at 30 uM (final concentration in assay). […] DC50 was calculated using curve fitting software Genedata Screener. […]
DC50 reference
recorded.endpoint: DC50

compound	recorded.endpoint	result
Cc1ncsc1-c1ccc(CNC(=O)[C@@H]2C[C@@H](O)CN2C(=O)[C@@H](NC(=O)CCCCCCCCCOCCOCCNC(=O)c2ccc3c(c2)c2cn(C)nc2n3-c2ccc(C(F)(F)F)cc2)C(C)(C)C)cc1	DC50	100 to 1000 nM
Cc1ncsc1-c1ccc([C@H](C)NC(=O)[C@@H]2C[C@@H](O)CN2C(=O)[C@@H](NC(=O)CCCCCC(=O)NCCOCCOCCNC(=O)c2ccc3c(c2)c2cn(C)nc2n3-c2ccc(C(F)(F)F)cc2)C(C)(C)C)cc1	DC50	100 to 1000 nM
Cn1cc2c3cc(C(=O)NCCOCCOCCOCCOCCNc4cccc5c4C(=O)N(C4CCC(=O)NC4=O)C5=O)ccc3n(CC3CCC(C(F)(F)F)CC3)c2n1 (stereo not drawn)	DC50	< 100 nM
Cc1ncsc1-c1ccc(CNC(=O)[C@@H]2C[C@@H](O)CN2C(=O)[C@@H](NC(=O)CCCCCCOCCOCCOCCNC(=O)c2ccc3c(c2)c2cn(C)nc2n3-c2ccc(C(F)(F)F)cc2)C(C)(C)C)cc1	DC50	100 to 1000 nM
Cc1ncsc1-c1ccc(CNC(=O)[C@@H]2C[C@@H](O)CN2C(=O)[C@@H](NC(=O)CCOCCC(=O)NCCOCCOCCNC(=O)c2ccc3c(c2)c2cn(C)nc2n3-c2ccc(C(F)(F)F)cc2)C(C)(C)C)cc1	DC50	3000 to 9000 nM
Cn1cc2c3cc(C(=O)NCCOCCOCCNC(=O)COc4ccc5c(c4)C(=O)N(C4CCC(=O)NC4=O)C5=O)ccc3n(-c3ccc(C(F)(F)F)cc3)c2n1 (stereo not drawn)	DC50	1000 to 3000 nM
CCNC(=O)[C@H](Cc1ccc(F)cc1)NC(=O)[C@@H]1CCCN1C(=O)[C@@H](NC(=O)[C@H](C)NCCOCCOCCOCCNC(=O)c1ccc2c(c1)c1cn(C)nc1n2-c1ccc(C(F)(F)F)cc1)C1CCCCC1 (stereo in doubt)	DC50	3000 to 9000 nM
Cc1ncsc1-c1ccc([C@H](C)NC(=O)[C@@H]2C[C@@H](O)CN2C(=O)[C@@H](NC(=O)CCCCCc2cn(CCCCOCCNC(=O)c3ccc4c(c3)c3cn(C)nc3n4-c3ccc(C(F)(F)F)cc3)nn2)C(C)(C)C)cc1	DC50	100 to 1000 nM
Cc1ncsc1-c1ccc(CNC(=O)[C@@H]2C[C@@H](O)CN2C(=O)[C@@H](NC(=O)CCCOCCOCCOCCOCCNC(=O)c2ccc3c(c2)c2cn(C)nc2n3-c2ccc(C(F)(F)F)cc2)C(C)(C)C)cc1	DC50	1000 to 3000 nM

====

target: hsTEAD4 (217-424) (Homo sapiens (Human), UniProt Q15561); assay: Thermal shift measurement / Differential Scanning Fluorimetry (DSF); assay type: binding; settings: 100 uM compound, 2 hours at 4° C., triplicates; read-out: ΔTm TEAD4 217-434
Sequence (Q15561 217-434): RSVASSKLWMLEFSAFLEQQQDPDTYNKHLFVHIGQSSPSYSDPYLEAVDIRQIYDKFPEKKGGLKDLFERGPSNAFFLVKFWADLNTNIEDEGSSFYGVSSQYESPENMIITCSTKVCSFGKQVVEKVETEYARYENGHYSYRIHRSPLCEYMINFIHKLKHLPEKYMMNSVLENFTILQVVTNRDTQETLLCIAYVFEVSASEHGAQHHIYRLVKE

compound	target.or.test.system	ΔTm at 100 µM (°C)
Cc1ncsc1-c1ccc(CNC(=O)[C@H]2C[C@H](O)CN2C(=O)[C@H](NC(=O)COCCOCCOCCOCCOCCNC(=O)c2ccc3c(c2)c2cn(C)nc2n3-c2ccc(C(F)(F)F)cc2)C(C)(C)C)cc1	hsTEAD4 (217-424) (Homo sapiens (Human), UniProt Q15561)	-0.2
Cn1cc2c3cc(C(=O)NCCOCCOCCNC(=O)CCCCCCNc4cccc5c4C(=O)N(C4CCC(=O)NC4=O)C5=O)ccc3n(-c3ccc(C(F)(F)F)cc3)c2n1 (stereo not drawn)	hsTEAD4 (217-424) (Homo sapiens (Human), UniProt Q15561)	1.4
Cc1ncsc1-c1ccc(CNC(=O)[C@@H]2C[C@@H](O)CN2C(=O)[C@@H](NC(=O)COCCOCCOCCOCC(=O)NCCOCCOCCNC(=O)c2ccc3c(c2)c2cn(C)nc2n3-c2ccc(C(F)(F)F)cc2)C(C)(C)C)cc1	hsTEAD4 (217-424) (Homo sapiens (Human), UniProt Q15561)	0.7
